Data provenance is patent US20250163183A1.

Kd overview
study_system: T1, human activated protein C (APC) (human, UniProt P04070 43-461)
T1 construct: Bought (Haematologic Technologies; plasma-derived from Enzyme Research Laboratories); Two-chain disulfide-linked protease
T1 sequence (P04070 other isoform, or with tags, fused parts or gaps): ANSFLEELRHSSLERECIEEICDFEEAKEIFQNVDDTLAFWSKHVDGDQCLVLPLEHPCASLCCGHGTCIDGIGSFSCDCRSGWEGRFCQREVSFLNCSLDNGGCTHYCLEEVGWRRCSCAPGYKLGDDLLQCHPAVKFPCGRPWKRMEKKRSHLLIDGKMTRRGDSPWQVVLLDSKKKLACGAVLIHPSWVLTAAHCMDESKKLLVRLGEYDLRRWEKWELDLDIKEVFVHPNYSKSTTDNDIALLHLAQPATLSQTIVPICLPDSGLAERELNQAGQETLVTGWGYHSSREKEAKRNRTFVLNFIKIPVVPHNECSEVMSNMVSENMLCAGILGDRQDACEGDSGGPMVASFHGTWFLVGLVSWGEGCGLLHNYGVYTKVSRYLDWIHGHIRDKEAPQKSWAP
experimental_details: BLI, VHH captured via anti-V5, APC in solution
# value in nM; strip the unit string

Worked set:
LP13 (SR16983-R3-P3-G08) (VHH, not shown: small tags and cut ends, Llama VHH purified from E. coli periplasm) VHH: QLQLVESGGGLVQAGGSLRLSCVASGTTFTIEDIGWHRQAPGKQLELVAVSRGGGNADYSDSVKGRFTISRDNAKTTVYLQMSSLKPEDTAVYYCIAKTKATTKWGRGIQVTVSS
1.2
LP1 (SR16983-R2-P3-D06) (VHH, not shown: small tags and cut ends, Llama VHH purified from E. coli periplasm) VHH: QLQLVESGGGLVQAGGSLRLSCAASGSTFPINVFAWYRQAPGEQRELGELVAFIGRSGTTNYGDSVKGRFTISRDNAKNTVYLQMDSLRPEDTAVYYCNLGDYWGQGTQVTVSS
15
LP3 (SR16983-R2-P4-E09) (VHH, not shown: small tags and cut ends, Llama VHH purified from E. coli periplasm) VHH: QVQLVESGGGLVQPGGSLTLSCAASGTIESINDMGWYRQAPGKQRELVAAITSGGSTNYADSVKGRFTISRDNAKNTVYLQMNSLKPEDTAVYYCNAEVKRHYYYDSAGYRYWGQGTQVTVSS
8.8
LP7 (SR16983-R3-P2-H08) (VHH, not shown: small tags and cut ends, Llama VHH purified from E. coli periplasm) VHH: EVQLVESGGGLVQAGGSLRLSCAASGTTFDMNSMGWYRQGPGFKRELVATISMGGDTNYADSVKGRFTISRANAKNTVYMQMNSLKPEDTAVYYCNAERIWPNRRTFWGQGTQVTVSS
9.4
LP4 (SR16983-R3-P2-A06) (VHH, not shown: small tags and cut ends, Llama VHH purified from E. coli periplasm) VHH: QLQLVESGGGLVQAGGSLRLSCAASGSTFNFRIMGWYRQVPGKQRELVAVINSGGSADYTEDVKGRFTISRDDAKSTMYLQMNSLKPEDTAVYYCHAKKVEPTLFTTTYWGQGTQVTVSS
4.4

Tell me Kd reported for LP10 (SR16983-R3-P3-E06) (VHH, not shown: small tags and cut ends, Llama VHH purified from E. coli periplasm) VHH: QVQLVESGGGLVQAGGSLRLSCAASGTIESINDMGWYRQAPGKQRELVATVSSSGMTNYADSAKGRFTISRDNAKNTMYLQMNSLKPEDTAVYYCKAHISRSYYYDSLGYDYWGQGTQVTVSS
4.5

Query Kd for LP19 (SR16983-R4-P1-B06) (VHH, not shown: small tags and cut ends, Llama VHH purified from E. coli periplasm) VHH: QLQLVESGGGEVQAGESLRLSCAASGSTFSINVFAWYRDYPGKQRELVAVIGRSGTPRYADSVKGRFTISRDNAKNTVYLQMNSLEPEDTAVYYCHLGDTWGQGTQVTVSS
6.1

Report Kd, nothing else, for this binder: LP15 (SR16983-R3-P5-H05) (VHH, not shown: small tags and cut ends, Llama VHH purified from E. coli periplasm) VHH: QLQLVESGGGLVQAGGSLRLSCAASGTTFSFVYMGWYRQAPGNQRDLVARISSDGSTNYADSVKGRFTISGDNAKNTVYLQMNSLKPEDTARYYCFWNGHTNKWGQGTQVTVSS
16
